Experiment: basal HepG2 mitochondrial membrane potential changes, profiling panel, cell-based, JC-1 fluorescence, 24 h, 100 nL compound (AID 1167); also: test concentration not given here
Settings: higher = more signal
OBSERVATION TYPE: z-score

Problem: Which z-score is listed for `O=C(O)[C@H](Cc1ccccc1)n1cc(-c2ccccn2)nn1` ?
Solution: 0.237

Hello, I would appreciate it if you could give z-score for each entry below.
1. COc1cc2c(cc1OC)CN(C(=O)[C@H]1[C@@H]3C(=O)O[C@@H](c4ccccc4)[C@@H](c4ccccc4)N3[C@@H](c3ccc(OCCO)cc3)[C@]13C(=O)Nc1ccc(C#CCCO)cc13)CC2
2. CCOC(=O)C[C@H]1[C@H](OC(=O)c2ccc(-c3ccccc3)cc2)[C@@H](NC(=O)c2ccc3ccccc3c2)c2cc(OCCCO)ccc2N1C(=O)c1ccc2ccccc2n1

Solution:
-1.21
1.33

###

Biological target: Torsin-1A (Homo sapiens)
Assay: small-molecule binders of mutant TOR1A in lysate, primary screen, cell lysate, small-molecule microarray, COS7 lysate, 635/667 nm fluorescence (AID 1150);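 also: score pools 667 nm emission and signal to noise measuring lysate protein binding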
Details: COS7 hTOR1A mutant lysate, 635 nm fluorescence, higher = more signal
OBSERVATION TYPE: composite z-score
Answers are plain numbers.

Worked examples follow.
Problem: Which composite z-score is listed for `COc1ccc([Si](C)(C)[C@H]2[C@H](CCn3cc([C@H](O)c4ccccc4)nn3)O[C@@]3(C(=O)N(Cc4cccc(N5C(=O)c6cccc7cccc5c67)c4)c4ccccc43)[C@@H]2C)cc1` ?
Solution: -0.437

Problem: Which composite z-score is listed for `CN(C)CCCCNC(=O)[C@H]1C[C@H]2C(=O)N3CCC[C@H]3C(=O)N2[C@H]1c1ccc(O)cc1` ?
Solution: -1.04

Problem: Which composite z-score is listed for `CC(C)(C)OC(=O)CC[C@@]1(C(=O)O)N=C(c2ccc(OCCCO)cc2)O[C@@H]1c1ccccc1CN=[N+]=[N-]` ?
Solution: 0.104

Problem: Which composite z-score is listed for `COCCOC(=O)N1C(=O)[C@@]2(c3cc(C#CCC(C(=O)OC)C(=O)OC)ccc31)[C@H](c1ccc(OCCO)cc1)N1[C@H](c3ccccc3)[C@H](c3ccccc3)OC(=O)[C@H]1[C@@H]2C(=O)N1CCN(c2ncccn2)CC1` ?
Solution: 0.6

Problem: Which composite z-score is listed for `CCCC[C@@H]1C[C@H]1[C@@H](NC(=O)c1ccccc1)c1ccc(Cl)cc1` ?
Solution: -0.539

Hello, I would appreciate it if you could give composite z-score for each entry below.
1. C=CCOC(=O)[C@H]1[C@@H]2C(=O)O[C@@H](c3ccccc3)[C@@H](c3ccccc3)N2[C@@H](c2ccc(OCCOC(=O)[C@H]3C[C@H]4C(=O)N[C@@H](Cc5ccccc5)C(=O)N4[C@H]3c3cccc(OCCO)c3)cc2)[C@]12C(=O)Nc1ccc(I)cc12
2. CO[C@H]1O[C@H](CO)[C@@H](OC(=O)Nc2ccc(Oc3ccccc3)cc2)[C@H](OC(=O)Nc2ccccc2-c2ccccc2)[C@@H]1OC(=O)Nc1ccccc1-c1ccccc1
3. C=CCOC(=O)[C@H]1[C@@H]2C(=O)O[C@@H](c3ccccc3)[C@@H](c3ccccc3)N2[C@@H](c2ccc(OCCOC(=O)[C@H]3C[C@H]4C(=O)N[C@@H](Cc5ccccc5)C(=O)N4[C@H]3c3ccc(O)cc3)cc2)[C@]12C(=O)Nc1ccc(I)cc12
4. C=C1C2CC3C(=C4C(CO[C@@H]4[C@H]4CCCN4S(=O)(=O)c4ccccc4[N+](=O)[O-])C4C(=O)N(C)C(=O)C34)CC2C(=O)N1C (stereo partly drawn)
5. CC=CC(O)C1C=CC2C(=O)N(C)C(=O)C2N1N1CCCCC1 (stereo not drawn)
6. O=C1NC(=O)C2C1C=CC(C(O)c1ccc3c(c1)OCO3)N2Nc1ccccn1 (stereo not drawn)
7. O=c1cccc(-c2ccc(C(F)(F)F)cc2)o1

Solution:
1. 0.815
2. 0.408
3. 0.691
4. 0.107
5. 0.71
6. 0.05
7. -0.476

Problem: Which composite z-score is listed for `C=C[C@@H](COC(C)=O)NS(=O)(=O)c1ccc(Br)cc1` ?
Solution: 0.357

###

Please respond with reported z-score for every item in the list.
Experiment: P. aeruginosa biofilm formation inhibitors, primary screen, PAO1 strain, BacTiter-Glo luminescence, LB-PBS (AID 1144)
Details: 12 h, higher = more signal
Active and inactive are the calls of the source. The rule behind the calls is not given here.

Problem: Which z-score is listed for `O=C1O[C@@H](c2ccccc2)[C@@H](c2ccccc2)N2[C@@H](c3ccccc3OCCO)[C@]3(C(=O)Nc4ccc(C#CCCO)cc43)[C@@H](C(=O)N3CCN(c4ncccn4)CC3)[C@H]12` ?
Solution: 0.608 (inactive)

Problem: Which z-score is listed for CC1CC/C=C\[C@H]2OC34C=CCN(C(C)C)C(=O)[C@H]3N(CCCCCO)C(=O)[C@@H]4C2C(=O)O1 (stereo partly drawn) ?
Solution: 1.39 (inactive)

Problem: Which z-score is listed for COc1ccc(C(O)C2C=CC3C(=O)N(C)C(=O)C3N2N2CCCCC2)cc1 (stereo not drawn) ?
Solution: -0.3 (inactive)

Hello, I would appreciate it if you could give z-score for each entry below.
1. O=C1OCC=C[C@H]2OC34C=CCN(Cn5nnc6ccccc65)C(=O)[C@H]3N(CCCCCCO)C(=O)[C@@H]4[C@@H]12 (stereo partly drawn)
2. C=C(CCCC)/C(=C/C[C@@H](OC(C)=O)c1ccc(CO)o1)c1cc(C(=O)OC)ccc1OC
3. C=C(C(=O)CC[C@H](OC(C)=O)c1cccc(OCCO)c1)C(C)C
4. C=CCNC(=O)[C@@H]1[C@H]2C(=O)O[C@H](c3ccccc3)[C@H](c3ccccc3)N2[C@H](c2ccccc2OCCO)[C@@]12C(=O)N(C(=O)OCCOC)c1ccc(C#CC3=CCCCC3)cc12
5. CC(=O)N1Cc2ccccc2C[C@]2(N=C(c3ccc(OCCCO)cc3)O[C@@H]2c2ccccc2)C1=O

Solution:
1.16 (inactive)
-0.504 (inactive)
-0.0576 (inactive)
-0.348 (inactive)
-0.497 (inactive)

###

Please respond with reported composite z-score for every item in the list.
Experiment: compound binding in COS7 lysate, probe aLAP1, primary screen, cell lysate, small-molecule microarray (AID 1124);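 also: lysate comes from COS7 cells expressing LAP1 and is applied at 0.3 µg/mL; score merges spot fluorescence near 667 nm with signal-to-noise over triplicate slides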
Conditions: probe aLAP1, fluorescence, higher = more signal
Give bare numbers.

Worked examples follow.
Problem: Which composite z-score is listed for `CCOC(=O)C[C@H]1[C@H](OC(=O)c2ccc(-c3ccccc3)cc2)[C@@H](NC(=O)c2ccc3ccccc3n2)c2cc(OCCCO)ccc2N1C(=O)c1ccccc1` ?
Solution: 0.0488

Problem: Which composite z-score is listed for `CC(C)N1C(=O)[C@@]2(c3ccc([N+](=O)[O-])cc3)CC(=O)N(C3CCCCC3)[C@@H]2c2ccc(CO)cc21` ?
Solution: 0.398

Problem: Which composite z-score is listed for COc1cc(CO)cc(I)c1O[C@H]1C=C(C(=O)NCCO)C[C@@H](N(Cc2ccc(F)cc2)C(=O)C2CCCO2)[C@@H]1O (stereo partly drawn) ?
Solution: -0.144

Problem: Which composite z-score is listed for `CCC[C@@H]1C[C@@]1(CCC)[C@@H](NP(=O)(c1ccccc1)c1ccccc1)c1ccc(Cl)cc1` ?
Solution: 0.38

Problem: Which composite z-score is listed for `C=CC[C@@]1(C(=O)N2CCCCC2)N=C(c2ccc(OCCCO)cc2)O[C@@H]1c1ccccc1` ?
Solution: 1.07

Problem: Which composite z-score is listed for `CCOC(=O)C1=CC[C@@H](c2cc(Cl)ccc2Cl)N(S(=O)(=O)c2ccc(C)cc2)[C@H]1c1ccc(OC)cc1` ?
Solution: 0.325

Hello, I would appreciate it if you could give composite z-score for each entry below.
1. C[C@H]1C2=C3C(CC[C@H]4C(OCc5ccc(F)cc5C(F)(F)F)OC[C@](C)([C@@H]34)N(C(=O)OC(C)(C)C)C2)C(CO)C1CO (stereo partly drawn)
2. COc1cc2c(cc1OC)CN(C(=O)[C@@H]1[C@H]3C(=O)O[C@H](c4ccccc4)[C@H](c4ccccc4)N3[C@H](c3ccccc3OCCO)[C@@]13C(=O)Nc1ccc(C#CC4(O)CCCCCC4)cc13)CC2
3. COCCOC(=O)N1C(=O)[C@@]2(c3cc(C#Cc4ccc(OC)cc4)ccc31)[C@H](C(=O)N1CCCCCCC1)[C@H]1C(=O)O[C@H](c3ccccc3)[C@H](c3ccccc3)N1[C@@H]2c1ccc(O)cc1
4. CC(C)C(=C=CC[C@@H](O)c1ccccc1OCCO)C[C@@H](O)COCc1ccccc1

Solution:
[0.505, 0.829, 0.421, 0.641]

Hello, I would appreciate it if you could give composite z-score for each entry below.
1. O=C1O[C@@H](c2ccccc2)[C@@H](c2ccccc2)N2[C@@H](c3ccc(O)cc3)[C@]3(C(=O)Nc4ccc(C#CCCO)cc43)[C@@H](C(=O)Nc3nc4ccccc4s3)[C@H]12
2. COCCOC(=O)N1C(=O)[C@@]2(c3ccccc31)[C@H](c1ccc(OCCO)cc1)N1[C@H](c3ccccc3)[C@H](c3ccccc3)OC(=O)[C@H]1[C@@H]2C(=O)Nc1nc2ccccc2s1

Solution:
1: 0.887; 2: 0.676

Problem: Which composite z-score is listed for `COCCOC(=O)N1C(=O)[C@@]2(c3ccccc31)[C@H](C(=O)N1CCN(c3ncccn3)CC1)[C@H]1C(=O)O[C@H](c3ccccc3)[C@H](c3ccccc3)N1[C@@H]2c1ccc(OCCO)cc1` ?
Solution: 0.341
